system: K-562 leukemia; assay: NCI-60 one-dose screen, 48 h; settings: 10 µM unless noted
About 83,000 compounds went through this panel and 20% of them were active in at least one assay; those are over-represented in the sample as a whole. The source made the active and inactive calls. How the source made its calls: active means growth percent below 10; inactive means the rest.
# valid calls are True for active, False for inactive; nothing else

For O=C(NCCCN1CCN(CCCNC(=O)C2CCCCC2)CC1)C1CCCCC1 , which call appears in the assay record?
False

For COc1cc(CCn2nnc3c(NCCCCO)ncnc32)cc(OC)c1 , which call appears in the assay record?
False

For C=CCOc1cccc(/C=C/C(=O)c2sc(Nc3cccnc3)nc2C)c1 , which call appears in the assay record?
False

For O=C1CCCCC=C1C[N+](=O)[O-] , which call appears in the assay record?
False

For Cc1ccc(C(=O)c2sc3nc4c(cc3c2N)CCCC4)c(C)c1 , which call appears in the assay record?
False

For CNC(=O)Cc1nc(-c2cccc(NS(=O)(=O)c3c(F)cccc3F)c2F)c(-c2ccnc(Nc3ccccc3)n2)s1 , which call appears in the assay record?
False

For COc1ccc(-c2nnc(COc3ccc(NC(=O)Nc4ccc(Cl)c(C(F)(F)F)c4)cc3F)o2)cc1 , which call appears in the assay record?
False

For COc1cc(-c2csc(NC(=O)Nc3ccc(Cl)cc3Cl)n2)cc(OC)c1OC , which call appears in the assay record?
False

For CN1C(=O)[C@H]2c3c1cccc3[C@@]13NC(=O)O[C@H]1[C@H](CCC3(C)C)C2(C)C , which call appears in the assay record?
False

For NC(=O)c1cccc(N2Cc3ccccc3OC3=C2C(=O)c2c(O)ccc(O)c2C3=O)c1 , which call appears in the assay record?
True

For Cc1cc(Nc2nc(-c3ccncc3)nc3ccccc23)n[nH]1 , which call appears in the assay record?
False

For NC(C(=O)O)C(O)c1ccc(OCc2ccccc2)c(OCc2ccccc2)c1 (stereo unspecified) , which call appears in the assay record?
False

For COC(=O)CCCCN=Cc1c(O)c(O)c(C(C)C)c2cc(C)c(-c3c(C)cc4c(C(C)C)c(O)c(O)c(C=NCCCCC(=O)OC)c4c3O)c(O)c12 , which call appears in the assay record?
False

For O=S(=O)(NCCNc1nccc(-c2c(-c3ccccc3)nc3sccn23)n1)c1ccc(O)cc1 , which call appears in the assay record?
False

For CC(CCc1ccccc1)NC(=O)c1n[nH]c(=O)c2ccccc12 (stereo unspecified) , which call appears in the assay record?
False

For COc1ccc(OC)c(/C=C2\Oc3cc(OCCN4CCCC4)ccc3C2=O)c1 , which call appears in the assay record?
True

For Cc1cc(N/C=c2\sc3ncnn3c2=O)no1 , which call appears in the assay record?
False

For O=C(CCC(=O)OC1CCCC1)OC1CCCC1 , which call appears in the assay record?
False

For CCCCCCC[C@@H](O)CC(=O)N[C@H](CCCCN)C(=O)N[C@H](Cc1c[nH]c2ccccc12)C(=O)NC(CCCCN)C(=O)N[C@H](CC(C)C)C(=O)N[C@H](Cc1ccccc1)C(=O)N[C@H](CCCCN)C(=O)N[C@H](CCCCN)C(=O)N[C@H](CC(C)C)C(=O)N1CCCC1C(=O)N[C@H](CCCCN)C(=O)N[C@H](Cc1ccccc1)C(=O)N[C@H](CC(C)C)C(=O)N[C@H](Cc1c[nH]cn1)C(=O)N[C@H](CC(C)C)C(=O)N[C@H](C)C(=O)N[C@H](CCCCN)C(=O)N[C@H](CCCCN)C(=O)N[C@H](Cc1ccccc1)C(=O)O (stereo partly specified) , which call appears in the assay record?
True

For Cc1cccc(-n2c(C)nc3ccc(NC(=O)NCCCl)cc3c2=O)c1 , which call appears in the assay record?
False

For COc1ccc2c(c1)C=CC(C#N)N2C(=O)c1ccccc1 (stereo unspecified) , which call appears in the assay record?
True

For CCCCCCOc1ccc(C2(Cl)c3ccccc3N(C)c3ccccc32)cc1 , which call appears in the assay record?
False

For FC(F)(F)c1cccc(-n2nnc3cnc(Nc4ccc(N5CCCCC5)cc4)nc32)c1 , which call appears in the assay record?
False

For O=S(=O)(NCCCNc1cc(-c2cn(-c3ccccc3)nc2-c2cccc(O)c2)ccn1)c1cccc(F)c1 , which call appears in the assay record?
True

For COc1cc(C(=O)N2CCN(C(=O)c3ccco3)CC2)c(N)cc1OCc1ccccc1 , which call appears in the assay record?
False

For Cc1ccc(Cn2c(-c3cccs3)nc3ccccc32)cc1 , which call appears in the assay record?
True

For COc1ccc(S(=O)(=O)Nc2cc(/C=C\c3cc(OC)c(OC)c(OC)c3)cc(OC)c2OC)cc1OC , which call appears in the assay record?
False

For CC(C)C[C@H](NC(=O)Cn1ccc(NCc2ccccc2)cc1=O)B(O)O , which call appears in the assay record?
False

For CC(=O)Nc1ccc(S(=O)(=O)N2C(=O)CCC2C(=O)Nc2ccccc2)cc1 (stereo unspecified) , which call appears in the assay record?
False

For O=C(NCCc1c[nH]c2ccccc12)C1Cc2ccccc2CN1C(=O)c1ccco1 (stereo unspecified) , which call appears in the assay record?
False

For CCC(c1ccc(OC)cc1)C(CC)c1ccc(O)c(CN2CCCC2)c1 (stereo unspecified) , which call appears in the assay record?
True

For CN(C)C1CCC(NC2=CC(=O)C=CC2=O)CC1 (stereo unspecified) , which call appears in the assay record?
False

For COc1ccc(/C=C/c2nc(N3CCOCC3)c3nc(Cl)c(Cl)cc3n2)cc1OC , which call appears in the assay record?
False

For NC(=O)c1ccc2c(c1)OCO2 , which call appears in the assay record?
False

For COc1cccc2nc(Nc3ccc(NC(=O)c4ccc5ncccc5c4)cc3)ccc12 , which call appears in the assay record?
False

For COc1cccc(-n2cc(-c3nc(Cl)c4ccccc4n3)nn2)c1 , which call appears in the assay record?
False

For c1cncc(CNc2ccccc2-c2nnc(Nc3ccc4c(c3)OCCO4)o2)c1 , which call appears in the assay record?
False

For CCOC(=O)CC/C(C)=N\Nc1ccc([N+](=O)[O-])cc1 , which call appears in the assay record?
True

For COc1cc(/C=C2\CCCC3=C2NC(C)=NC3c2cc(OC)c(OC)c(OC)c2)cc(OC)c1OC (stereo unspecified) , which call appears in the assay record?
False

For C=CCn1c(C)nc2ccc(Nc3nc(Nc4ccc(F)cc4)nc4ccccc34)cc21 , which call appears in the assay record?
False

For O=C(O)Cc1ccc2c(c1)Cc1cccnc1O2 , which call appears in the assay record?
False
